The values you see were collected from PubChem BioAssay.

Experiment: HepG2 cytotoxicity, primary screen, cytotoxicity control for P. falciparum antimalarial project, cell-based, ATP luminescence (AID 2303);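 note: 0% = DMSO wells and 100% = digitonin-killed cells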
Settings: HepG2 viability, 24-48 h, at 10 µM
Calls of active or inactive are those of the source.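 Rule for the calls: active = inhibition above 50%; inactive = the rest.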
Select the matching outcome among active, inactive

CC(Cc1ccc(SCCSc2ccccc2)cc1)NCC(O)c1cccc(Cl)c1 (stereo not drawn) :: inactive
COC(=O)C(C)(C)c1ccc(CC(C)NCC(O)c2cccc(C(F)(F)F)c2)cc1 (stereo not drawn) :: inactive
COCC(=O)N(Cc1ccccc1-c1ccc(CNCCc2ccccc2)cc1)C1CCN(Cc2ccccc2)CC1 :: inactive
COc1cccc(C2(C)CCN(CCCCNC(=O)c3ccc(NC(=O)c4ccc(Cl)cc4)cc3)CC2)c1 :: inactive

Req: Record request — test call for C[C@@H](CC1CCCCC1)NCc1ccccc1O
Resp: inactive

Req: Record request — test call for COCCNCc1cccc(-c2cccc(CN(C(=O)Nc3ccccc3)C3CCN(Cc4ccccc4)CC3)c2)c1
Resp: inactive

Req: Record request — test call for N#Cc1c(Cl)cccc1Oc1ccc(S(=O)(=O)N2CCC(CN3CCC(c4c[nH]c5ccccc45)CC3)CC2)cc1
Resp: inactive

Req: Record request — test call for O=C(/C=C/c1ccc(Cl)c(Cl)c1)NCC1CCC(N2CCC(c3c[nH]c4ccccc34)CC2)CC1 (stereo not drawn)
Resp: inactive

Req: Record request — test call for O=C(/C=C/C=C/c1ccccc1)NC1CCC(CN2CCC(c3c[nH]c4ccccc34)CC2)CC1 (stereo not drawn)
Resp: inactive

Req: Record request — test call for C/C=C1/CN2CC[C@H]1C[C@H]2[C@H](O)c1ccnc2ccc(OC)cc12
Resp: inactive

Req: Record request — test call for O=C(/C=C/c1cc(F)cc(C(F)(F)F)c1)N1CCC(CN2CCC(c3c[nH]c4ccccc34)CC2)CC1
Resp: inactive

Req: Record request — test call for CC[C@H]1CN2CC[C@@H]1C[C@@H]2[C@@H](O)c1cc(-c2ccc(F)cc2)nc2ccc(OC)cc12
Resp: inactive

Req: Record request — test call for CN1CC=C(c2c[nH]c3ccc(-c4ccccc4)cc23)CC1
Resp: inactive

Req: Record request — test call for COC(=O)c1ccc(CC(C)NCC(O)c2cc(Cl)c(N)c(Cl)c2)cc1 (stereo not drawn)
Resp: inactive

* * *

Experiment: inhibition of endothelial tube formation, primary screen, imaging, VEGF stimulated, CD31 staining, tube area, NPC library (AID 1117340)
Details: VEGF-stimulated ADSC/ECFC co-culture, at 10 µM, stronger effect = higher value
quantity name: tube area decrease (%)
Write the number in % without appending the unit.

Some solved entries appear below for comparison.
CN1C(=O)COc2c(C(=O)NC3CN4CCC3CC4)cc(Cl)cc21 (stereo not drawn) :: -0.8
CC(C)(C)OC(=O)c1ncn2c1[C@@H]1CCCN1C(=O)c1c(Br)cccc1-2 :: 2
NC(=O)CN1CCCC1=O :: -16.1

Req: Record request: tube area decrease value, item O=P1(NCCCl)OCCCN1CCCl (stereo not drawn)
Resp: 9.8

Req: Record request: tube area decrease value, item CCCCCCCCCCCC[N+](C)(C)CCOc1ccccc1
Resp: 111

Req: Record request: tube area decrease value, item Cc1ccc([N+](=O)[O-])[c]2c1[O][Hg]2
Resp: 105

Req: Record request: tube area decrease value, item COP(=O)(OC)OC=C(Cl)Cl
Resp: -16.8

Req: Record request: tube area decrease value, item CCCOC(=O)Cc1ccc(OCC(=O)N(CC)CC)c(OC)c1
Resp: -2.3

Req: Record request: tube area decrease value, item C[N+](C)(C)CCOC(=O)C(O)(c1ccccc1)c1ccccc1
Resp: -29.2

Req: Record request: tube area decrease value, item CCOP(=S)(OCC)Oc1cc(C)nc(C(C)C)n1
Resp: 0.2

Req: Record request: tube area decrease value, item Nc1ccncc1
Resp: -8.7

Req: Record request: tube area decrease value, item CNC(=O)NC(O)C(Cl)(Cl)Cl (stereo not drawn)
Resp: -28.9

Req: Record request: tube area decrease value, item CCO[C@H]1O[C@@H]2OC3(C)CC[C@H]4[C@H](C)CC[C@@H]([C@H]1C)[C@@]24OO3
Resp: 34.8
